- Test system: wt ARBTH
- ASSAY_METHOD_TEXT: In vitro plate test of herbicide cross resistance: wild-type Arabidopsis
- Format: in vivo, Arabidopsis thaliana
- CONDITION_PARAMETERS: root, 7 days
ASSAY_ENDPOINT: wt ARBTH root 150 (ppm)

MOLECULE: Cc1cc(Cl)ccc1OCC(=O)O
RELATION_SYMBOL: =
VALUE_OBSERVED: 0.01
//
MOLECULE: Nc1c(Cl)c(Cl)nc(C(=O)O)c1Cl
RELATION_SYMBOL: =
VALUE_OBSERVED: 0.3
//
MOLECULE: CC(Oc1ccc(Cl)cc1Cl)C(=O)O (racemic) [(R,S)-dichlorprop, 2,4-dichlorophenoxypropionic acid]
RELATION_SYMBOL: =
VALUE_OBSERVED: 0.01
//
MOLECULE: O=C(O)COc1nc(Cl)c(Cl)cc1Cl
RELATION_SYMBOL: =
VALUE_OBSERVED: 0.02
//
MOLECULE: O=C(O)COc1cc(Cl)c(Cl)cc1Cl
RELATION_SYMBOL: <
VALUE_OBSERVED: 0.01
//
MOLECULE: Nc1c(Cl)c(F)nc(OCC(=O)O)c1Cl
RELATION_SYMBOL: =
VALUE_OBSERVED: 0.2
//
MOLECULE: O=C(O)COc1ccc(Cl)cc1Cl
RELATION_SYMBOL: <
VALUE_OBSERVED: 0.01
//
MOLECULE: Cc1cc(Cl)ccc1OC(C)C(=O)O (racemic) [(R,S)-mecoprop]
RELATION_SYMBOL: =
VALUE_OBSERVED: 0.01
